All figures here come from the supplement of paper PMC10307832.

- System: NCI-H838
- method: relative viability (nuclei count vs DMSO), 5 days (fraction); higher = more cells survive
- condition.notes: first compound 0.04 µM
outcome.measure: relative viability
No unit in the answer, please; the number alone is enough.

Recorded results for 3 molecules are shown here.
COc1cc(N2CCC(C(N)=O)CC2)ccc1Nc1nc(N)c(Cl)c(Nc2ccccc2S(=O)(=O)C(C)C)n1 [HG-5-88-01] + CCNC(=O)c1noc(-c2cc(C(C)C)c(O)cc2O)c1-c1ccc(CN2CCOCC2)cc1 [Luminespib] (partner 0.01 µM) | 0.322
C[C@@H]1CN(CC(=O)Nc2ccc3c(c2)Cc2cccc(-c4cc(=O)cc(N5CCOCC5)o4)c2S3)C[C@H](C)O1 + Cc1nc(Nc2ncc(C(=O)Nc3c(C)cccc3Cl)s2)cc(N2CCN(CCO)CC2)n1 [Dasatinib] (partner 0.075 µM) | 0.27
Clc1ccc(Nc2nnc(Cc3ccncc3)c3ccccc23)cc1 [Vatalanib] + CC(C)C[C@H](NC(=O)[C@H](Cc1ccccc1)NC(=O)c1cnccn1)B(O)O [Bortezomib] (partner 0.002 µM) | 0.973

Shift focus to the following entry.
Need relative viability of Clc1ccc(Nc2nnc(Cc3ccncc3)c3ccccc23)cc1 [Vatalanib] + CS(=O)(=O)N1CCN(Cc2cc3nc(-c4cccc5[nH]ncc45)nc(N4CCOCC4)c3s2)CC1 [Pictilisib] (partner 1 µM) , thanks. 0.477
